test_target: T1, EsCas13d, nuclease-dead (Eubacterium siraeum, UniProt B0MS50, R295A;H300A;R849A;H854A)
T1 sequence: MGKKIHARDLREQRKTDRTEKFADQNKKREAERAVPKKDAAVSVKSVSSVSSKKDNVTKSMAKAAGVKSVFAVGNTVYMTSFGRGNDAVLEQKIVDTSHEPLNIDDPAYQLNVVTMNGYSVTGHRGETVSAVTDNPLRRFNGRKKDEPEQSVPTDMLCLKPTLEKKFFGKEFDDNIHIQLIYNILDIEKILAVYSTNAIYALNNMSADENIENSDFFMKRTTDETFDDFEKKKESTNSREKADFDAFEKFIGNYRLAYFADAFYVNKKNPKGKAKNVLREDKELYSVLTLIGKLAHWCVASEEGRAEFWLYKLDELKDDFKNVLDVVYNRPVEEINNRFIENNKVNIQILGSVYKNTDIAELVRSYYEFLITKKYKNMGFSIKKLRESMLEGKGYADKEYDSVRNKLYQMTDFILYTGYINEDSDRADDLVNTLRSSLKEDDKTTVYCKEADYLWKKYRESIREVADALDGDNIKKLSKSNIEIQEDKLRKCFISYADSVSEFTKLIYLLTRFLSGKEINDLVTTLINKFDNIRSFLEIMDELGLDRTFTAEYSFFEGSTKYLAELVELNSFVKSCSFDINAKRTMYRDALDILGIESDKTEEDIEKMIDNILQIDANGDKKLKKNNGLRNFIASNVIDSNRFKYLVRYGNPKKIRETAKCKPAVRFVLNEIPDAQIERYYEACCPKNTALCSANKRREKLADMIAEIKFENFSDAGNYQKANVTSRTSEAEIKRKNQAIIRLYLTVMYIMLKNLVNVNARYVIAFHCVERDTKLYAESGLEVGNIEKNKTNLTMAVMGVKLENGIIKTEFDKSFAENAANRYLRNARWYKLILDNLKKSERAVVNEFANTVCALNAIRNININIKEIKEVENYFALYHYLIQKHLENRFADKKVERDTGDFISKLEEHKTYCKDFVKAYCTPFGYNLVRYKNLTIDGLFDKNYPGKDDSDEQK
assay_overview: crRNA (strand 1, pre-loaded); Mg2+; 40 mM Tris-HCl pH 7.5, 150 mM NaCl, 6 mM MgCl2, 1 mM DTT, 0.1% Tween-20, 0.2 mg/ml BSA; 25 C; 10 min per concentration, then washed
setup_conditions: tags: His6-TwinStrep-SUMO cleaved; N-terminal SNAP kept (SNAP-Surface 488); label: 3' end held by stalled T7 RNA polymerase
measurement_label: pKd
One number for each entry, as −log10 of the molar value.

# count of solved cases: 3
binder	pKd
target 3 insA 3' of 6,insC 3' of 2 (mixed) RNA 1: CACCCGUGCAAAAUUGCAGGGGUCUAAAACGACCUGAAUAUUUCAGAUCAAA RNA 2: GGGAAUGGAUCCACAUCUACGAAUUCGUUUUUGAUCUGAAAUAUUCAAGGUCCUGCAGAUCGGAAGAGCACACGU	7.46
target 1 U10G,C21U (mixed) RNA 1: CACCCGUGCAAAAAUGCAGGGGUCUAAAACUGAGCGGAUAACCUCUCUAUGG RNA 2: GGGAAUGGAUCCACAUCUACGAAUUCGUACUAUAGAGAGGUGAUCCGCUCACCGAGAUCGGAAGAGCACACGU	7.93
target 2 MT 5'PFS GGA 3'PFS UAU (mixed) RNA 1: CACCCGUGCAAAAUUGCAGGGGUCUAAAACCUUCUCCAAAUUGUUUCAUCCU RNA 2: GGGAAUGGAUCCACAUCUACGAAUUCGGAAGGAUGAAACAAUUUGGAGAAGUAUAGAUCGGAAGAGCACACGU	8.04

Now consider a different binder.
Task item: Given the entry target 1 MT 5'PFS CUG 3'PFS ACG (mixed) RNA 1: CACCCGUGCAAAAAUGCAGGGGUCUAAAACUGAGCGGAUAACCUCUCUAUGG RNA 2: GGGAAUGGAUCCACAUCUACGAAUUCCUGCCAUAGAGAGGUUAUCCGCUCAACGAGAUCGGAAGAGCACACGU , report its measured pKd.
Reply: 8.16

Reference for the values: paper PMC10786891
